This collection of values is drawn from patent US10955415B2.

- System: CD4+Foxp3+ Treg cells
- Set-up: species or system mice
- setup.conditions: mouse, in vivo
readout.type: levels of Treg cells (CD4+Foxp3+) in spleen

[[record]]
molecule = "CCc1c2c(nc3ccc(OC(=O)N4CCC(N5CCCCC5)CC4)cc13)-c1cc3c(c(=O)n1C2)COC(=O)[C@]3(O)CC [Irinotecan]"
result = "remained unchanged"

[[record]]
molecule = "O=c1[nH]cc(F)c(=O)[nH]1 [5-FU, 5-Fluorouracil]"
result = "remained unchanged"

[[record]]
molecule = "CS(=O)(=O)OCCCCOS(C)(=O)=O [Busulfan, 1,4-butanediol dimethanesulfonate]"
result = "remained unchanged"

